Target: human HAQ STING isoform (hSTING HAQ) (Homo sapiens, UniProt Q86WV6, G230A/H232R/R293Q/R71H)
Construct: THP1 cells express the naturally occurring human HAQ STING isoform (hSTING HAQ); host or cells: THP1
Sequence (Q86WV6 whole entry R71H/G230A/H232R/R293Q, canonical isoform): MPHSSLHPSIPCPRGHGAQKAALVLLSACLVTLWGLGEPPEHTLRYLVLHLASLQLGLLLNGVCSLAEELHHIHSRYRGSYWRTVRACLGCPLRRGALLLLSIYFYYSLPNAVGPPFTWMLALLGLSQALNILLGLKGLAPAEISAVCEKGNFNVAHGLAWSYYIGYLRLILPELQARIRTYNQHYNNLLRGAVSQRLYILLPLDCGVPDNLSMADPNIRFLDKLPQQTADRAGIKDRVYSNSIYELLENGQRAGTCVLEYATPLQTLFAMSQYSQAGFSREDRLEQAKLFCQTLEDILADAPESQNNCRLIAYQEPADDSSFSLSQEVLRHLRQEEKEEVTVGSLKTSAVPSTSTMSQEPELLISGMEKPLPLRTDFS
Experiment: IFN-β mRNA level in THP1 cells (qPCR, STING agonist cellular activity)
Type: cell-based
Conditions: compound at 3.6 μM, 2 hrs, IFNβ expression normalized against GAPDH by the 2^-ΔΔCT method, DMSO = 1.0
Protocol: Cellular activity of STING agonists was determined by mRNA levels of IFN-β in THP1 (Otwo Biotech HTX1621) cell line. THP1 cells express the naturally occurring human HAQ STING isoform (hSTING HAQ), which responses to the activation of STING agonists. […]
endpoint: Relative mRNA INFβ/GAPDH THP 1

COc1cc(CN(Cc2cn3c4c(c(N5CCN(C)CC5)c(F)cc4c2=O)OCC3)[C@H]2CCCN(c3ccc(N)nc3)C2)ccn1 = 248.8

(1) Cc1ccc(N2CCC[C@H](N(Cc3ccnc(C)c3)Cc3cn4c5c(c(OCCO)c(F)cc5c3=O)OCC4C)C2)cn1 (stereo partly shown)
(2) COc1cc(CN(Cc2cn3c4c(c(F)c(F)cc4c2=O)OC[C@H]3C)[C@H]2CCCN(c3ccc(N)nc3)C2)ccn1
Lookup: Of the two listed items, which has the higher Relative mRNA INFβ/GAPDH THP 1? First: 1 Second: 2 // return label of chosen record
Found: 2

(P) Nc1ccc(N2CCC[C@H](N(Cc3ccccn3)Cc3cn4c5c(c(F)c(F)cc5c3=O)OCC4)C2)cn1
(Q) Cc1cc(CN(Cc2cn3c4c(c(F)c(F)cc4c2=O)OCC3C)[C@H]2CCCN(c3cnccn3)C2)ccn1 (stereo partly shown)
Lookup: I'm curious whether P or Q has the smaller Relative mRNA INFβ/GAPDH THP 1 number. Which is it? Choose, then provide that item's label.
Found: P

(A) COc1cc(CN(Cc2cn3c4c(c(F)c(F)cc4c2=O)SCC3)[C@H]2CCCN(c3ccc(N)nc3)C2)ccn1
(B) COc1cc(CN(Cc2cn3c4c(c(F)c(F)cc4c2=O)OCC3C)[C@H]2CCCN(c3ccc(N4CCCC4)nc3)C2)ccn1 (stereo partly shown)
Lookup: Consider A and B . Which of these has its Relative mRNA INFβ/GAPDH THP 1 at a higher number? Let me know the label of the one you choose.
Found: A
(A: 9547.9, B: 6.7)

Measured values drawn from patent US20250171461A1 for this set.
